test-target: DRB1*1201 (Homo sapiens, UniProt P01903+P01911, A100R/A169T/D57E/D86V/F55L/H45Y/K41T/L162R/M171V/P40S/Q125H/Q178H/Q39Y/Q99D/R42G/S66L/T262R/V114A/V67L/W38E/Y59H/Y61H/Y89S)
test-summary: biochemical
recorded-endpoint: IC50 (nM)
Answer format: numeric, nM implied, no suffix.

Below, each entry is followed by its recorded IC50 result.
CC[C@H](C)[C@H](NC(=O)[C@@H]1CCCN1C(=O)[C@H](CC(N)=O)NC(=O)[C@@H](N)Cc1c[nH]c2ccccc12)C(=O)N[C@@H](CC(C)C)C(=O)N[C@@H](CC(C)C)C(=O)N[C@@H](Cc1c[nH]c2ccccc12)C(=O)N[C@@H](CCC(N)=O)C(=O)N1CCC[C@H]1C(=O)N[C@H](C(=O)N1CCC[C@H]1C(=O)N[C@H](C(=O)N[C@@H](Cc1c[nH]cn1)C(=O)N[C@H](C(=O)N[C@H](C(=O)O)C(C)C)[C@@H](C)O)C(C)C)[C@@H](C)CC [Peptide 68.0035] :: 5690
CSCC[C@H](NC(=O)[C@@H]1CCCN1C(=O)[C@@H](N)CC(=O)O)C(=O)N[C@@H](Cc1ccccc1)C(=O)N[C@@H](CCCCN)C(=O)N[C@@H](Cc1ccc(O)cc1)C(=O)N[C@@H](Cc1c[nH]cn1)C(=O)N[C@@H](CC(C)C)C(=O)N[C@H](C(=O)N[C@H](C(=O)N[C@@H](C)C(=O)N[C@@H](CCC(N)=O)C(=O)N[C@H](C(=O)N[C@@H](CCCNC(=N)N)C(=O)NCC(=O)O)C(C)C)C(C)C)[C@@H](C)O [Peptide 68.0118] :: 470
CC(C)C[C@H](NC(=O)[C@H](CO)NC(=O)[C@H](CC(C)C)NC(=O)[C@H](CO)NC(=O)[C@H](C)NC(=O)[C@H](C)NC(=O)[C@H](CCCNC(=N)N)NC(=O)[C@H](C)NC(=O)[C@H](CC(C)C)NC(=O)[C@H](CC(C)C)NC(=O)[C@H](CC(C)C)NC(=O)[C@@H]1CCCN1C(=O)[C@H](C)NC(=O)[C@H](C)N)C(=O)NCC(=O)O [Peptide 68.0019] :: 564
CSCC[C@H](NC(=O)[C@H](CC(C)C)NC(=O)[C@@H]1CCCN1C(=O)[C@@H](NC(=O)[C@@H](N)CS)[C@@H](C)O)C(=O)N[C@@H](Cc1ccc(O)cc1)C(=O)N[C@@H](CO)C(=O)N[C@@H](CC(C)C)C(=O)N[C@H](C(=O)N[C@@H](Cc1c[nH]cn1)C(=O)N[C@@H](CC(N)=O)C(=O)N[C@@H](CC(C)C)C(=O)N[C@H](C(=O)N[C@@H](CCCCN)C(=O)N[C@@H](CCC(=O)O)C(=O)O)[C@@H](C)O)C(C)C [Peptide 68.0113] :: 1730

Shift focus to the following entry.
Q: Give its IC50 value. Item: CC[C@H](C)[C@H](NC(=O)[C@H](CO)NC(=O)[C@H](CO)NC(=O)[C@H](CC(=O)O)NC(=O)[C@H](C)NC(=O)[C@H](CC(N)=O)NC(=O)[C@@H](NC(=O)[C@H](Cc1ccc(O)cc1)NC(=O)[C@H](C)NC(=O)[C@@H](NC(=O)CN)C(C)C)[C@@H](C)CC)C(=O)N[C@@H](CCC(=O)O)C(=O)NCC(=O)N[C@@H](CC(N)=O)C(=O)N[C@@H](Cc1ccc(O)cc1)C(=O)O [Peptide 68.0110]
Result: 5490
